Source: patent US20090048164A1

measuredOn: Recombinant human Bcl-xL with a 25 amino acid truncation of its C-terminus (human) (UniProt Q07817)
Sequence (Q07817 1-208): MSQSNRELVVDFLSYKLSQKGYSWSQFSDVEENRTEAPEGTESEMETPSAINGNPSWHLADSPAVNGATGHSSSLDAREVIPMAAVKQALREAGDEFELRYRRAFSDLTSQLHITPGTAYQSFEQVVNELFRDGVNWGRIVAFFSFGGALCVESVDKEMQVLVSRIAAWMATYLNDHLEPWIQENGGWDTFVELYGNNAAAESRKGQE
methodNotes: competition phage ELISA
outcomeMeasure: IC50 (nM)
The answer is to be given in nM; state only the numeric part.

QEDIIRNIARHLAQVGDSMDRSIAPG [Bid BH3 P24A, phage-displayed] : 14
PSSTMGQVGRALAIIGDDINRRYDSE [Bak BH3 Q11A, phage-displayed] : 238
AEDIIRNIARHLAQVGDSMDRSIPPG [Bid BH3 Q1A, phage-displayed] : 24

Name the recorded IC50 of the binder listed here: QEDIIRNIARHLAQVGDSMDRSIPPG [Bid BH3 wild type, phage-displayed] 11

Please indicate IC50 recorded for PASTMGQVGRQLAIIGDDINRRYDSE [Bak BH3 S2A, phage-displayed] 28

Provide only the value of recorded IC50 for ALWAAQRYGRELRRMSDEFVDSFKKG [Bad BH3 N1A, phage-displayed] 2
